Data provenance is patent US9540325B2.

System: HCT116 cells
MEASUREMENT NOTES: Measurement of effect of inhibiting cancer cell proliferation (MTT)
Type: cell-based, human
CONDITIONS USED: Homo sapiens, HCT-116, 48 h
Source text: HCT116 cells derived from human colorectal cancer (commercially available from the Korean Cell Line Bank) were used, and the effect of inhibiting cancer cell proliferation of the biguanide derivative was confirmed by measuring the concentration value (cell growth inhibition concentration, GIC50) at which cell growth was inhibited by 50% using a 3-(4,5-dimethylthiazol-2-yl)-2,5-diphenyltetrazolium bromide (MTT) reagent. […]
REPORTED METRIC: log10(GI50) (log10 of the value in µM)
Note: values are log10 of GI50 expressed in µM.

1) Cl.N=C(NC(=N)N1CCC1)Nc1ccc(OC(F)(F)F)cc1 [Example 31, hydrochloride] ... 1.36
2) Cl.N=C(NC(=N)N1CCCC1)Nc1ccc(Cl)c(Cl)c1 [Example 63, hydrochloride] ... 0.94
3) Cl.N=C(NC(=N)N1CCCCC1)Nc1ccc(OC(F)(F)F)c(F)c1 [Example 54, hydrochloride] ... 0.65

## Task Item: Cl.N=C(NC(=N)N1CCCC1)Nc1ccc(OC(F)(F)F)cc1 [Example 32, hydrochloride] Test system: HCT116 cells Read-out: log10(GI50) Value: ?
## Result 1.37

## Task Okay, and Cl.N=C(NC(=N)N1CCCCC1)Nc1ccc(OC(F)(F)F)c(Cl)c1 [Example 57, hydrochloride] ?
## Result 0.41

## Task Okay, and CCc1cccc(NC(=N)NC(=N)N2CCCCC2)c1.Cl [Example 10, hydrochloride] ?
## Result 1.44

## Task Okay, and Cl.N=C(NC(=N)N1CCCCC1)Nc1cccc(OC(F)(F)F)c1 [Example 29, hydrochloride] ?
## Result 0.77

## Task Okay, and Cl.N=C(NC(=N)N1CCCCC1)Nc1ccc(Cl)c(OC(F)(F)F)c1 [Example 51, hydrochloride] ?
## Result 0.28

## Task Okay, and Cl.N=C(NC(=N)N1CCCCC1)Nc1ccc(C(F)(F)F)cc1 [Example 27, hydrochloride] ?
## Result 0.83

## Task Okay, and Cl.N=C(NC(=N)N1CCOCC1)Nc1ccc(OC(F)(F)F)cc1 [Example 34, hydrochloride] ?
## Result 1.67
